# System under test: Gal-4CL (Homo sapiens)
# Construct: designated as Gal-4NL (aa 1-160), and Gal-4CL (aa 169-323), respectively
# Sequence (P56470 169-323): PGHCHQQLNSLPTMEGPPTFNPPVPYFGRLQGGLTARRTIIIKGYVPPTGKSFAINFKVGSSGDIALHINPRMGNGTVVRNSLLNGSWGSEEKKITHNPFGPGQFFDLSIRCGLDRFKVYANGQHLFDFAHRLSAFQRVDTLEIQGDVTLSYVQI
# Assay name: competitive ELISA, inhibition of binding of Gal-4CL subunit to immobilized ASF
# Condition label: competitive ELISA, Gal-4CL 25 µM, immobilized ASF
pIC50: −log10 of the molar value.
Endpoint label: pIC50

{"Compound": "OC[C@H]1O[C@@H](O[C@H]2[C@H](O)[C@@H](O)[C@H](O)O[C@@H]2CO)[C@H](O)[C@@H](O)[C@H]1O [lactose (1), lactose]", "Endpoint label": "pIC50", "Reported": 2.07}
{"Compound": "CC(=O)N[C@H]1[C@H](O[C@H]2[C@@H](O)[C@@H](CO)O[C@@H](O[C@H]3[C@H](O)[C@@H](O)C(O)O[C@@H]3CO)[C@@H]2O)O[C@H](CO)[C@@H](O[C@@H]2O[C@H](CO)[C@H](O)[C@H](O)[C@H]2O)[C@@H]1O (stereo partly shown) [lacto-N-neotetraose (4), lacto-N-neotetraose]", "Endpoint label": "pIC50", "Reported": 3.10}
{"Compound": "CC(=O)N[C@H]1[C@H](O[C@H]2[C@@H](O)[C@@H](CO)O[C@@H](O[C@H]3[C@H](O)[C@@H](O)C(O)O[C@@H]3CO)[C@@H]2O)O[C@H](CO)[C@@H](O)[C@@H]1O[C@@H]1O[C@H](CO)[C@H](O)[C@H](O)[C@H]1O (stereo partly shown) [lacto-N-tetraose (3), lacto-N-tetraose]", "Endpoint label": "pIC50", "Reported": 3.33}
{"Compound": "C[C@@H]1O[C@@H](O[C@H]2[C@H](O[C@H]3[C@H](O)[C@@H](O)C(O)O[C@@H]3CO)O[C@H](CO)[C@H](O)[C@@H]2O[C@H]2O[C@H](CO)[C@H](O)[C@H](O)[C@H]2O)[C@@H](O)[C@H](O)[C@@H]1O (stereo partly shown) [blood-group antigen B (6), blood-group antigen B type 6]", "Endpoint label": "pIC50", "Reported": 3.52}
{"Compound": "CC(=O)N[C@H]1[C@@H](O[C@H]2[C@@H](O)[C@@H](CO)O[C@@H](O[C@H]3[C@H](O)[C@@H](O)C(O)O[C@@H]3CO)[C@@H]2O[C@@H]2O[C@@H](C)[C@@H](O)[C@@H](O)[C@@H]2O)O[C@H](CO)[C@H](O)[C@@H]1O (stereo partly shown) [blood-group antigen A (5), blood-group antigen A type 6]", "Endpoint label": "pIC50", "Reported": 4.57}
{"Compound": "CC(=O)N[C@H]1C(O)O[C@H](CO)[C@H](O)[C@@H]1O[C@@H]1O[C@H](CO)[C@H](O)[C@H](O)[C@H]1O (stereo partly shown) [TF antigen motif (9)]", "Endpoint label": "pIC50", "Reported": 2.24}
{"Compound": "C[C@@H]1O[C@@H](O[C@H]2[C@H](O[C@H]3[C@H](O)[C@@H](O)C(O)O[C@@H]3CO)O[C@H](CO)[C@H](O)[C@@H]2O)[C@@H](O)[C@H](O)[C@@H]1O (stereo partly shown) [2′-fucosyllactose (2), 2′-fucosyllactose]", "Endpoint label": "pIC50", "Reported": 2.96}
